# TESTED TARGET: T1, recombinant His-labeled hCTLA-4 ECD protein (human, UniProt P16410 36-161)
# T1 construct: extracellular domain; also called human CTLA-4 ECD; not shown: His label
# T1 sequence (looked up): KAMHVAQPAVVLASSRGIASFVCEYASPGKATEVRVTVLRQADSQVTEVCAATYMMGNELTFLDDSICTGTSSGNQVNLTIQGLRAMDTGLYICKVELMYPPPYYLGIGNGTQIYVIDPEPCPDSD
# PROTOCOL DESCRIPTION: SPR Biacore T200, antibody captured by anti-human Fc, 1:1 model
EXPERIMENTAL READOUT: Kd (nM)
Field format: number, assumed nM, no unit text.

Sample records with Kd:
97A8D1 fully human CTLA-4 antibody (human IgG1, kappa) (antibody, V domains shown, also called mAb49; mAb049) VH: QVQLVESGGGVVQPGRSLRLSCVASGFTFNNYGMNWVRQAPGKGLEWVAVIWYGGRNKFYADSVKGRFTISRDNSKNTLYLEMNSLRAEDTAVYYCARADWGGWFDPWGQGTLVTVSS VL: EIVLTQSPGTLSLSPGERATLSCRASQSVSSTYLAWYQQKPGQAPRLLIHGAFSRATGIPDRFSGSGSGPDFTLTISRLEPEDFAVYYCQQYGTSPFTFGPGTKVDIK; 2.15
92C8B6 fully human CTLA-4 antibody (human IgG1, kappa) (antibody, V domains shown, also called mAb42; mAb042) VH: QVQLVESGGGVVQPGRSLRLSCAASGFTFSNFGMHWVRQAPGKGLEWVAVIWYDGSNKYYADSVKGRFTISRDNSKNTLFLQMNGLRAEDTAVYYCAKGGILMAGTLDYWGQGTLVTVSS VL: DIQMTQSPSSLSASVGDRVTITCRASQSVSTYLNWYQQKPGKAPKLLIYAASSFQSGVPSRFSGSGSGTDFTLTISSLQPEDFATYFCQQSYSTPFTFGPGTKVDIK; 2.52

Task: Fill in the blank: the reported Kd of 31C12F3 fully human CTLA-4 antibody (human IgG1, kappa) (antibody, V domains shown, also called mAb010) VH: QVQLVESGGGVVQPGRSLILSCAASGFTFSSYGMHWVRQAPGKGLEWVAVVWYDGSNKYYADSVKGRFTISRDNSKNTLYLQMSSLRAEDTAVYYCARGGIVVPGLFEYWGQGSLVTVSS VL: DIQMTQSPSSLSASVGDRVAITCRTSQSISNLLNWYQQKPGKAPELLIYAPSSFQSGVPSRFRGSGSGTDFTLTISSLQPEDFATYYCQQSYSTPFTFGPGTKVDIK is ____.
Output: 2.62

Task: What value of measured Kd is listed for 40C4C6 fully human CTLA-4 antibody (human IgG1, kappa) (antibody, V domains shown, also called mAb09; mAb009) VH: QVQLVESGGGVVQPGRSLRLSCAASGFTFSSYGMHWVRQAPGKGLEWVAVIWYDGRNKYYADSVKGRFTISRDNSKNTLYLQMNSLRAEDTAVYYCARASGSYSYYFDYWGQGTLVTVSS VL: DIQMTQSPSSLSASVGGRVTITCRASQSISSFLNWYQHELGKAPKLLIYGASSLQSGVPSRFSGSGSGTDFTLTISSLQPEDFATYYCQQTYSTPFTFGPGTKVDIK ?
Output: 2.36
